Data origin: patent US20050026903A1

biological target: CCK-1 receptor (Homo sapiens); construct: expressed in transfected cells; membranes; assay: CCK-1 receptor radioligand binding assay ([125I]-BH-CCK-8S competition, membranes of stably transfected CHO-K1 cells)
Sequence (P32238 whole entry): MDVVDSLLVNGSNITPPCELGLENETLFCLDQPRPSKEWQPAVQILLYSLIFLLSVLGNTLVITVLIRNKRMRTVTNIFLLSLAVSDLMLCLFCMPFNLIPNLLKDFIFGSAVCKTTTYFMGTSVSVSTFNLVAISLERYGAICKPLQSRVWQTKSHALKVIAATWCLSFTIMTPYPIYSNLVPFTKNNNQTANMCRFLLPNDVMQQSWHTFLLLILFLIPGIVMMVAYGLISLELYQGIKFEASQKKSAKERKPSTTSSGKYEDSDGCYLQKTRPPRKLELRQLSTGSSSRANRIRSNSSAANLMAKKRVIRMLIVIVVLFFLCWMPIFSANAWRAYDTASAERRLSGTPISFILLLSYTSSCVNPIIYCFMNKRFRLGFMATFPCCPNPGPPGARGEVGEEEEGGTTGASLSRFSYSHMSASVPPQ
assay.endpoint: Ki (nM)
Numbers only; they are read as nM.

Exercise: Can you look up the measured Ki of COc1ccc(-n2nc(C[C@H](C([O])=O)c3cccc(C)c3)cc2-c2ccc(Cl)c(Cl)c2)cc1 for me?
Solution: 10
